Biological target: cGMP-specific 3',5'-cyclic phosphodiesterase (Homo sapiens, UniProt O76074)
Experiment: Inhibition of PDE5 from platelets
measure: pIC50
Kindly note that pIC50 refers to -log10 of the concentration in mol/L and answer with the value alone.

// query pIC50 value for entry CC(C)Cn1c(=O)n(C)c(=O)c2[nH]cnc21 [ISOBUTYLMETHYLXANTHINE]
4.20

---

Test: Inhibition of platelet aggregation induced by PAF (2 ng/mL)
Format: functional
measure: IC50 (µM)
Write it as a number; the unit µM goes unstated.

Worked cases, answers included:
// query IC50 value for entry Cc1ccc2c(-c3ccc(CO)o3)nn(Cc3ccccc3)c2c1
72

How about OCc1cccc(-c2nn(Cc3ccccc3)c3ccccc23)c1 ?
174

How about OCc1ccc(-c2nn(Cc3ccccc3)c3cc4c(cc23)OCO4)o1 ?
164

Moving on to another compound below.
// query IC50 value for entry COCc1ccc(-c2nn(Cc3ccccc3)c3ccccc23)o1
25.5

---

Assay: Inhibition of platelet aggregation induced by Collagen (10 uM)
Assay type: functional
Conditions: in the assay text read “10 ug/mL” for “10 uM”
Property: IC50; scope: individual compounds

Worked cases, answers included:
// query IC50 value for entry COC(=O)c1ccc(-c2nn(Cc3ccccc3)c3cc(OC)ccc23)o1
157 µM

How about OCc1ccc(-c2nn(Cc3ccccc3)c3ccccc23)o1 ?
53.8 µM

How about Cc1ccc2c(-c3ccc(C(=O)O)o3)nn(Cc3ccccc3)c2c1 ?
182 µM

More entries:
// query IC50 value for entry O=C(O)c1ccc(-c2nn(Cc3ccccc3)c3cc(F)ccc23)o1
180 µM

How about COC(=O)c1ccc(-c2nn(Cc3ccccc3)c3cc(C)ccc23)o1 ?
78.3 µM

How about O=C(O)c1ccc(-c2nn(Cc3ccccc3)c3ccccc23)cc1 ?
156 µM

---

Property: pIC50; scope: individual compounds
Experiment: Inhibition of platelet aggregation induced by thrombin (0.1 unit/ml)
Format: functional
Kindly note that pIC50 refers to -log10 of the concentration in mol/L and answer with the value alone.

// query pIC50 value for entry COCc1ccc(-c2nn(Cc3ccccc3)c3cc(OC)ccc23)o1
3.59

More entries:
// query pIC50 value for entry OCc1ccc(-c2nn(Cc3ccccc3)c3ccccc23)o1
3.76

How about COCc1ccc(-c2nn(Cc3ccccc3)c3cc(F)ccc23)o1 ?
3.94

How about OCc1ccc(-c2nn(Cc3ccccc3)c3cc4c(cc23)OCO4)o1 ?
3.62

How about COCc1ccc(-c2nn(Cc3ccccc3)c3cc(C)ccc23)o1 ?
3.90

How about OCc1ccc(-c2nn(Cc3ccccc3)c3ccccc23)cc1 ?
3.72

How about Cc1ccc(-c2nn(Cc3ccccc3)c3ccccc23)o1 ?
4.40

How about COC(=O)c1ccc(-c2nn(Cc3ccccc3)c3cc4c(cc23)OCO4)o1 ?
3.59

How about COCc1ccc(-c2nn(Cc3ccccc3)c3ccccc23)o1 ?
3.84

How about OCc1ccc(-c2nn(Cc3ccccc3)c3cc(F)ccc23)o1 ?
3.66

How about OCc1ccc(-c2nn(-c3ccccc3)c3ccccc23)o1 ?
3.80

How about CCN(CC)Cc1ccc(-c2nn(Cc3ccccc3)c3ccccc23)o1 ?
3.99

How about COc1ccc2c(-c3ccc(CO)o3)nn(Cc3ccccc3)c2c1 ?
3.77
